- Test system: HUVEC
- assay protocol: Cytotoxicity against HUVEC assessed as cell viability > 200 uM after 24 hrs by MTT assay
- Assay type: cell-based
- condition label: human
Counter-ions that a name gives are not always drawn.
observable: Activity

// solved cases for Activity follow
> print(dat)
                                   compound  observable  measured.value
1  COC1(C)CCc2c(c3c(c4c2OC(C)(OC)CC4)OC(C)(OC)CC3)O1 (configuration not stated)    Activity       Non-toxic
2  COC(=O)c1c(O)c2c(c3c1O[C@@]1(C)OC[C@H](C)[C@H]1C3)O[C@@]1(C)OC[C@H](C)[C@H]1C2 [XYLOKETAL B METHYL FORMATE]    Activity       Non-toxic
3   CC1COC2(C)Oc3cc(O)cc(O)c3CC12 (racemic)    Activity       Non-toxic
4  C[C@H]1CO[C@]2(C)Oc3ccc4c(c3C[C@H]12)O[C@@]1(C)OC[C@H](C)[C@H]1C4 [DEHYDROXY XYLOKETAL B]    Activity       Non-toxic
5  CCCOc1cc2c(c3c1C[C@@H]1[C@@H](C)CO[C@]1(C)O3)C[C@@H]1[C@@H](C)CO[C@]1(C)O2    Activity       Non-toxic
6  COc1cc2c(c3c1C[C@@H]1[C@@H](C)CO[C@]1(C)O3)C[C@@H]1[C@@H](C)CO[C@]1(C)O2    Activity       Non-toxic

**Q:** Output measured Activity for this item: `C[C@H]1CO[C@]2(C)Oc3c(c(O)c(C(=O)O)c4c3C[C@@H]3[C@@H](C)CO[C@]3(C)O4)C[C@H]12`
**A:** Non-toxic
